Consider the following substances and their measured normalised inhibition (eCFP-eYFP dual reporter) readings.
system: MRFAP1; also: test concentration or dose not given here
procedureSummary: reporter assay of Huesken 2005
reportedConditions: siRNA
Oligonucleotides are written 5' to 3', each unit as a sugar letter and its base; * is a phosphorothioate linkage, no mark a phosphodiester; rarer units and linkages stand in square brackets, end groups in braces. Plain capitals give the bases only. d = 2'-deoxy (DNA); r = 2'-OH (RNA)
testReadout: normalised inhibition (eCFP-eYFP dual reporter)

[
  {
    "substance": "sense rArArGrGrUrUrCrArUrArUrGrUrArGrUrCrArAdTdT / antisense rUrUrGrArCrUrArCrArUrArUrGrArArCrCrUrUdGdA",
    "endpointValue": "85.4%"
  },
  {
    "substance": "sense rGrUrCrCrCrUrGrUrGrArCrArCrUrGrArGrArCdTdT / antisense rGrUrCrUrCrArGrUrGrUrCrArCrArGrGrGrArCdCdC",
    "endpointValue": "43%"
  },
  {
    "substance": "sense rGrUrUrCrCrUrGrArArUrUrUrGrArGrGrUrGrCdTdT / antisense rGrCrArCrCrUrCrArArArUrUrCrArGrGrArArCdAdC",
    "endpointValue": "23.1%"
  },
  {
    "substance": "sense rArGrGrGrCrGrGrArGrArArGrGrCrCrGrArCrGdTdT / antisense rCrGrUrCrGrGrCrCrUrUrCrUrCrCrGrCrCrCrUdGdG",
    "endpointValue": "23.9%"
  },
  {
    "substance": "sense rArArArArUrCrUrUrArCrArUrGrUrUrArArUrAdTdT / antisense rUrArUrUrArArCrArUrGrUrArArGrArUrUrUrUdGdT",
    "endpointValue": "76.5%"
  },
  {
    "substance": "sense rUrGrArUrGrArCrCrUrGrGrGrArGrArArGrGrGdTdT / antisense rCrCrCrUrUrCrUrCrCrCrArGrGrUrCrArUrCrAdGdT",
    "endpointValue": "33.2%"
  }
]
